Please respond with reported pest or weed control at 125 g/ha for every item in the list.
tested on: kochia (Kochia scoparia); test: Test A postemergence, kochia; format: in vivo; details: Bassia scoparia, post-emergence, 240 h, 125 g ai/ha, 0 to 100 scale, 0 no effect, 100 complete control, read-out: Plant response rating, Kochia
Answers are plain numbers, in %.

Example cases with answers are listed next.
Which pest or weed control at 125 g/ha value is on record for C[C@@H](Nc1ncc(C(F)(F)F)c(N)n1)c1cc2c(F)cccc2o1 [Compound 73] ?
90

Consider the molecule shown here: C[C@@H](Nc1ncc(C(F)(F)F)c(N)n1)c1cc2c(F)cccc2s1 [Compound 61] What is its recorded pest or weed control at 125 g/ha?
80

Request the reported pest or weed control at 125 g/ha associated with C[C@@H](Nc1ncc(C(F)(F)F)c(N)n1)c1cc2cccc(F)c2o1 [Compound 71]
90

Which pest or weed control at 125 g/ha value is on record for C[C@@H](Nc1ncc(C(F)(F)F)c(N)n1)c1coc2ccccc12 [Compound 52] ?
90

Now, please, on to the next molecule.
Which pest or weed control at 125 g/ha is reported for this molecule? C[C@@H](Nc1ncc(C(F)(F)F)c(N)n1)c1cc2cccc(F)c2s1 [Compound 75]
80
